- Tested on: A549 non-small cell lung cancer
- assay-summary: MTT cell viability assay, A549
- Assay type: cell-based
- test-parameters: Homo sapiens, A549, 48 h, read-out: A549 IC50
property-name: IC50 (µM)
The response must be a number in µM with no trailing unit.

# lookup: IC50 of COc1ccc(/C(CSc2nnc(-c3nnn(-c4ccc(S(N)(=O)=O)cc4)c3C)n2-c2ccccc2)=N\O)cc1 [Compound 19c]
4.5

And COc1ccc(-n2c(SC/C(=N/O)c3ccc(C)cc3)nnc2-c2nnn(-c3ccc(S(N)(=O)=O)cc3)c2C)cc1 [Compound 19h] ?
4

====

- system-tested: COX-2 (Homo sapiens)
- Sequence (P35354 18-604): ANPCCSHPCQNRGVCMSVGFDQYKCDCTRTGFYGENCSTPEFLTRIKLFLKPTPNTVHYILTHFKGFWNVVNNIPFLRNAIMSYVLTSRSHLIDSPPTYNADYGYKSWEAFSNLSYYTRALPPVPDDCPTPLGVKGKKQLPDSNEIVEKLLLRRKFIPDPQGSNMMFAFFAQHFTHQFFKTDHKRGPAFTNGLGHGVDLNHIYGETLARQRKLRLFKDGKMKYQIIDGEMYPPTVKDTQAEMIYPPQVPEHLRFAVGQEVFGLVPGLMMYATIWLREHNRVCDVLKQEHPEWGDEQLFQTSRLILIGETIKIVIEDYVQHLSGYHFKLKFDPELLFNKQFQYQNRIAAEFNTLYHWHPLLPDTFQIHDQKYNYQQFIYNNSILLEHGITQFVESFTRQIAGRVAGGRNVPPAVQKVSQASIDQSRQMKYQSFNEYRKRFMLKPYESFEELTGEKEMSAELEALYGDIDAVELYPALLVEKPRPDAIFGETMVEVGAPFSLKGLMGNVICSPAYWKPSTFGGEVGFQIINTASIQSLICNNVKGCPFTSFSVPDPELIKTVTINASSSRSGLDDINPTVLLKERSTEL
- assay-summary: biochemical
- test-parameters: in vitro COX-2 selectivity index, IC50 (COX-1)/IC50 (COX-2)
So I've got a bunch of compounds here, and I need their COX-2 S.I. values.
Just the number, please.

I'd like to know its COX-2 S.I.. The compound in question is COc1ccc(-n2c(SC/C(=N/O)c3ccc(Cl)cc3)nnc2-c2nnn(-c3ccc(S(N)(=O)=O)cc3)c2C)cc1 [Compound 19j]
8.63

Also check Cc1c(-c2nnc(SC/C(=N/O)c3ccccc3)n2-c2ccccc2)nnn1-c1ccc(S(N)(=O)=O)cc1 [Compound 19a]
14.11

# repeat for COc1ccc(-n2c(SC/C(=N/O)c3ccccc3)nnc2-c2nnn(-c3ccc(S(N)(=O)=O)cc3)c2C)cc1 [Compound 19g]
12.08

Follow-up entry: COc1ccc(/C(CSc2nnc(-c3nnn(-c4ccc(S(N)(=O)=O)cc4)c3C)n2-c2ccc(OC)cc2)=N\O)cc1 [Compound 19i]
12.67

====

The next entries give measured pIC50 for COX-2 (Homo sapiens).
Keep it numeric: pIC50 is minus log10 of the concentration in mol/L.

I am curious: what pIC50 value has been reported for Cc1c(-c2nnc(SC/C(=N/O)c3ccc(Cl)cc3)n2-c2ccccc2)nnn1-c1ccc(S(N)(=O)=O)cc1 [Compound 19d] ?
6.36

// repeat for Cc1ccc(/C(CSc2nnc(-c3nnn(-c4ccc(S(N)(=O)=O)cc4)c3C)n2-c2ccccc2)=N\O)cc1 [Compound 19b] and report
6.31

Proceed to COc1ccc(/C(CSc2nnc(-c3nnn(-c4ccc(S(N)(=O)=O)cc4)c3C)n2-c2ccc(OC)cc2)=N\O)cc1 [Compound 19i]
6.44

Request: COc1ccc(-n2c(SC/C(=N/O)c3ccc(C)cc3)nnc2-c2nnn(-c3ccc(S(N)(=O)=O)cc3)c2C)cc1 [Compound 19h]
6.51

Same again, this time with COc1ccc(/C(CSc2nnc(-c3nnn(-c4ccc(S(N)(=O)=O)cc4)c3C)n2-c2ccccc2)=N\O)cc1 [Compound 19c]
6.51

Here is the next molecule: COc1ccc(-n2c(SC/C(=N/O)c3ccc(Cl)cc3)nnc2-c2nnn(-c3ccc(S(N)(=O)=O)cc3)c2C)cc1 [Compound 19j]
6.40

Would you mind doing COc1ccc(-n2c(SC/C(=N/O)c3ccccc3)nnc2-c2nnn(-c3ccc(S(N)(=O)=O)cc3)c2C)cc1 [Compound 19g] as well?
6.40

Now consider Cc1c(-c2nnc(SC/C(=N/O)c3ccccc3)n2-c2ccccc2)nnn1-c1ccc(S(N)(=O)=O)cc1 [Compound 19a] .
6.46
